# credit: ChEMBL document CHEMBL3826967

subject-of-test: Botulinum neurotoxin type E (Clostridium botulinum)
protocol-notes: Inhibition of endopeptidase activity of Clostridium botulinum BoNT/E light chain using SNAP-25 as substrate at 20 uM after 15 mins by HPLC analysis
Listing of recorded inhibition by entry.
Numeric only. Scale: %

Consider the reported inhibition for these compounds:
compound	subject-of-test	inhibition / %
O=C(O)c1ccccc1-c1ccccc1C(=O)Nc1ccc2c(c1)Cc1cc(F)ccc1-2	Botulinum neurotoxin type E (Clostridium botulinum)	47.6
O=C(O)c1ccccc1C(=O)CCC(=O)c1ccccc1C(=O)O	Botulinum neurotoxin type E (Clostridium botulinum)	21.2
O=C(O)c1ccc(C(=O)c2ccccc2C(=O)O)cc1	Botulinum neurotoxin type E (Clostridium botulinum)	13.7
O=C1c2ccccc2-c2cc(Br)c(NC(=O)C3CCCCC3C(=O)O)cc21 (centres undefined)	Botulinum neurotoxin type E (Clostridium botulinum)	19.3
O=C(O)c1ccccc1C(=O)c1ccc2c(c1)Cc1ccccc1-2	Botulinum neurotoxin type E (Clostridium botulinum)	80.1

Then this compound:
stdin: // fetch Botulinum neurotoxin type E (Clostridium botulinum) inhibition for O=C(O)c1ccccc1C(=O)c1ccc(-c2ccccc2)cc1
stdout: 37.8
